Values were extracted from ChEMBL document CHEMBL4130433.

So I've got a bunch of compounds here, and I need their IC50 values.
- Test system: 2008
- assay-info: Antiproliferative activity against resistant human 2008 cells clone 6 harboring MRP1 after 72 hrs by MTT assay
- Format: functional, cell-based
- measurement-conditions: Homo sapiens, 2008, 72 h
Your answer should be a number followed by the unit of measure.

Fill blank: measured IC50 of the compound COC(=O)c1c(C)nc(NNC(=O)c2cccc3c(=O)c4ccccc4[nH]c23)nc1-c1ccc(OC)c(OC)c1 is ____.
65 µM

Try COC(=O)c1c(C)nc(NNC(=O)c2cccc3c(=O)c4ccccc4[nH]c23)nc1-c1ccc(F)cc1 next.
27 µM

Try CCOC(=O)c1c(C)nc(NNC(=O)c2cccc3c(=O)c4ccccc4[nH]c23)nc1-c1ccc(OC)c(OC)c1 next.
19 µM

Try COC(=O)c1c(C)nc(NNC(=O)c2cccc3c(=O)c4ccccc4[nH]c23)nc1-c1cccc(OC)c1 next.
72 µM

---

So I've got a bunch of compounds here, and I need their CC50 at 72 h values.
- assay-info: Cytotoxicity against African green monkey Vero cells after 72 hrs by MTT assay
- Format: cell-based
- measurement-conditions: chlorocebus sabaeus

Fill blank: measured CC50 at 72 h of the compound CCOC(=O)c1c(C)nc(NNC(=O)c2cccc3c(=O)c4ccccc4[nH]c23)nc1-c1ccc(OC)c(OC)c1 is ____.
84.3 µM

Try CCOC(=O)c1c(C)nc(NNC(=O)c2cccc3c(=O)c4ccccc4[nH]c23)nc1-c1ccccc1 next.
92.8 µM

Try CCOC(=O)c1c(C)nc(NNC(=O)c2cccc3c(=O)c4ccccc4[nH]c23)nc1-c1ccc(OC)cc1 next.
82.3 µM

Try CCOC(=O)c1c(C)nc(NNC(=O)c2cccc3c(=O)c4ccccc4[nH]c23)nc1-c1ccc(C)cc1 next.
72.3 µM

Try COC(=O)c1c(C)nc(NNC(=O)c2cccc3c(=O)c4ccccc4[nH]c23)nc1-c1ccccc1 next.
80 µM

Try COC(=O)c1c(C)nc(NNC(=O)c2cccc3c(=O)c4ccccc4[nH]c23)nc1-c1ccc(C)cc1 next.
64.2 µM

Try COC(=O)c1c(C)nc(NNC(=O)c2cccc3c(=O)c4ccccc4[nH]c23)nc1-c1ccccc1F next.
76.1 µM

---

- Tested on: A549
- assay-info: cells
- measurement-conditions: Homo sapiens, A549, 72 h
- Description: Antiproliferative activity against human A549 cells after 72 hrs by MTT assay
So I've got a bunch of compounds here, and I need their pIC50 values.
Scale for pIC50: -log10 of concentration given in mol/L; no unit attached.

Fill blank: measured pIC50 of the compound COc1cccc2c1C(=O)c1c(O)c3c(c(O)c1C2=O)C[C@@](O)(C(=O)CO)C[C@@H]3O[C@H]1C[C@H](N)[C@H](O)[C@H](C)O1 is ____.
4.99

Try CCOC(=O)c1c(C)nc(NNC(=O)c2cccc3c(=O)c4ccccc4[nH]c23)nc1-c1ccccc1F next.
5.51

Try COC(=O)c1c(C)nc(NNC(=O)c2cccc3c(=O)c4ccccc4[nH]c23)nc1-c1ccc(F)cc1 next.
4.44

Try CCOC(=O)c1c(C)nc(NNC(=O)c2cccc3c(=O)c4ccccc4[nH]c23)nc1-c1ccc(OC)cc1 next.
5.49

Try C#Cc1cccc(Nc2ncnc3cc(OCCOC)c(OCCOC)cc23)c1 next.
4.67

Try CCOC(=O)c1c(C)nc(NNC(=O)c2cccc3c(=O)c4ccccc4[nH]c23)nc1-c1ccc(C)cc1 next.
5.01

Try CCOC(=O)c1c(C)nc(NNC(=O)c2cccc3c(=O)c4ccccc4[nH]c23)nc1CC(C)C next.
5.41

Try COC(=O)c1c(C)nc(NNC(=O)c2cccc3c(=O)c4ccccc4[nH]c23)nc1-c1cccc(OC)c1 next.
4.57

Try COC(=O)c1c(C)nc(NNC(=O)c2cccc3c(=O)c4ccccc4[nH]c23)nc1-c1ccccc1F next.
4.69

Try CCOC(=O)c1c(C)nc(NNC(=O)c2cccc3c(=O)c4ccccc4[nH]c23)nc1-c1ccc(OC)c(OC)c1 next.
4.38

Try COC(=O)c1c(C)nc(NNC(=O)c2cccc3c(=O)c4ccccc4[nH]c23)nc1-c1ccc(C)cc1 next.
4.39

Try COC(=O)c1c(C)nc(NNC(=O)c2cccc3c(=O)c4ccccc4[nH]c23)nc1-c1ccccc1 next.
4.69

Try CCOC(=O)c1c(C)nc(NNC(=O)c2cccc3c(=O)c4ccccc4[nH]c23)nc1-c1ccccc1 next.
5.07

Try COC(=O)c1c(C)nc(NNC(=O)c2cccc3c(=O)c4ccccc4[nH]c23)nc1-c1ccc(OC)c(OC)c1 next.
4.54

Try COC(=O)c1c(C)nc(NNC(=O)c2cccc3c(=O)c4ccccc4[nH]c23)nc1-c1ccc(OC)cc1 next.
4.35
